Compiled record: IC50 values for Hepatocyte growth factor receptor (Homo sapiens) across several sources.

>>> observed_result("CCOC(=O)Nc1cccc(Cn2nc(-c3ccc(OCCN)cc3)ccc2=O)c1")
"10 to 1000 nM"
>>> observed_result("O=C1CCn2cc([C@@H]3C(=O)NC(=O)[C@H]3c3c[nH]c4ccccc34)c3cccc1c32 (racemic)")
"1600 nM"
>>> observed_result("CCOc1ccncc1C(=O)Nc1cc(F)c(Oc2ccnc3cc(OCCNC)ccc23)c(F)c1")
"≤ 100 nM"
>>> observed_result("CNC(=O)CN1CCC(n2cc(-c3cnc(N)c(-c4nc5ccccc5s4)c3)cn2)CC1")
"100 to 1000 nM"
>>> observed_result("O=C(NC1Cc2ccccc2C1)c1cnc2c(c1)N(Cc1cc(Cl)ccc1Cl)CCN2")
"> 100000 nM"

Go through the items and report each one's IC50.
1. COc1ccc(F)cc1C(C)Oc1nc(-c2cn(C)c(C)n2)cnc1N (stereo not shown)
2. CC(C)(C)OC(=O)N1CC=C(c2cnc3c(c2)N(Cc2cc(Cl)ccc2Cl)CCN3)CC1
3. O=C(c1cnc2c(c1)N(Cc1cc(Cl)ccc1Cl)CCN2)N1CCC(N2CCOCC2)CC1
4. CN1CCN(C(=O)c2cnc3c(c2)N(Cc2cc(F)ccc2F)CCN3)CC1
5. Cc1nn2c(Sc3ccc4ncccc4c3)nnc2s1

Response given:
> 20000 nM
10000 to 100000 nM
10000 to 100000 nM
> 100000 nM
100 to 1000 nM

====

We begin with pIC50 values for Hepatocyte growth factor receptor (Homo sapiens, UniProt P08581), as collected from the published literature.
pIC50: −log10 of the molar value.

Solved cases (2 shown):
>>> observed_result("CCOC(=O)Nc1cccc(Cn2nc(-c3cc(F)c(OCCCN)c(F)c3)ccc2=O)c1")
"6.00 to 8.00"
>>> observed_result("CCOC(=O)Nc1cccc(Cn2nc(-c3cccc(OCCCCNC(=O)OC(C)(C)C)c3)ccc2=O)c1")
"6.00 to 8.00"

Could I get pIC50 for every one of these entries?
1. CNCCOc1cc2nccc(Oc3c(F)cc(NC(=O)c4c(OC)ccnc4F)cc3F)c2cc1OC
2. CC(=O)c1cccc(Nc2cnc3[nH]ccc3c2)c1
3. O=c1n(Cc2ccoc2)c2cnc3ccc(Cl)cc3c2n1-c1ccccc1Cl
4. CCOC(=O)Nc1cccc(Cn2nc(-c3ccc(CC(=O)NCCNC(=O)OC(C)(C)C)cc3)ccc2=O)c1
5. O=C1CNc2ncc(-c3ccc(C(=O)N4CCC[C@H]4CN4CCCC4)cc3)cc2N1Cc1cc(F)ccc1F

Response given:
1: ≥ 7.00; 2: ≥ 5.00; 3: ≥ 6.30; 4: 6.00 to 8.00; 5: 6.00 to 7.00

Answer for every listed entry: what is its pIC50? The entries follow.
1. COCCOc1cc2nccc(Oc3c(F)cc(NC(=O)c4cnccc4OC)cc3F)c2nc1OC
2. c1ccc(CN2CCNc3ncccc32)cc1

Response given:
≥ 7.00
< 4.00

====

Target or system Hepatocyte growth factor receptor (Homo sapiens, UniProt P08581); metric IC50; compiled from varied reports.

>>> observed_result("Nc1ncc(-c2cccc(C(=O)N3CCCCC3)c2)cc1-c1nc2ccccc2s1")
"1000 to 20000 nM"
>>> observed_result("CCOC(=O)Nc1cccc(Cn2nc(-c3cccc(CNC(=O)CCN)c3)ccc2=O)c1")
"10 to 1000 nM"
>>> observed_result("CN1CCN(C(=O)Nc2nccc(Oc3ccc(NC(=O)c4cc5ncsc5n(-c5ccc(F)cc5)c4=O)cc3F)c2Cl)CC1")
"100 to 1000 nM"

Lab note: next molecule to report on.
Challenge: I'm curious: which IC50 was measured for COc1cc2nccc(Oc3ccc(NC(=O)c4cn(C(C)C)c(=O)n(-c5ccc(C)cc5)c4=O)cc3F)c2c2c1OCCO2 tested on Hepatocyte growth factor receptor (Homo sapiens, UniProt P08581)?
Response given: 50 to 500 nM

====

Study the reported IC50 values for UniProt:P08581 given below; they originate from different publications.

>>> observed_result("CCNC(=O)Nc1cccc(Cn2nc(-c3ccc(F)cc3)ccc2=O)c1")
"10 to 1000 nM"
>>> observed_result("CC(C)CCn1cc(-c2cnc3c(c2)N(Cc2c(F)ccc(F)c2Cl)CCN3)cn1")
"100 to 1000 nM"
>>> observed_result("CNCCCOc1cc2nccc(Oc3ccc(NC(=O)c4cnccc4OC)c(F)c3F)c2cc1OC")
"≤ 100 nM"
>>> observed_result("O=C1CNc2ncc(I)cc2N1Cc1cc(F)c(F)cc1F")
"> 100000 nM"

Return reported IC50 values for all items listed beneath this line.
1. CS(=O)(=O)c1ccc(-c2ccc3nnc(C(F)(F)c4ccc5nc(NC(=O)C6CC6)cn5n4)n3c2)cc1
2. CCOC(=O)Nc1cccc(Cn2nc(-c3ccc(OCCCO)cc3)ccc2=O)c1

Response given:
< 30 nM
10 to 1000 nM

State the recorded IC50 for every item in the following list.
1. CN(C)CCCCOC(=O)Nc1cccc(Cn2nc(-c3cc(F)cc(F)c3)ccc2=O)c1
2. CC(=O)c1ccc(-c2cnc3c(c2)N(Cc2ccccc2)C(=O)CN3)cc1

Response given:
1. 10 to 1000 nM
2. > 100000 nM

Report IC50 for each item below.
1. CC(=O)Nc1cccc(Cn2nc(-c3ccc(F)cc3)ccc2=O)c1
2. O=C(Cc1ccccc1)N1CCNc2ncc(I)cc21

Response given:
10 to 1000 nM
10000 to 100000 nM

====

The entries below pair compounds with IC50 values for Hepatocyte growth factor receptor (Homo sapiens, UniProt P08581), as found in several publications.

>>> observed_result("CC(c1cc(F)c(F)cc1F)N1CCNc2ncc(I)cc21 (stereo not drawn)")
"> 100000 nM"
>>> observed_result("S=C(NCc1cccnc1)NCc1c[nH]c2ncccc12")
"≤ 10000 nM"
>>> observed_result("O=C(NCc1cc(C(F)(F)F)cc(C(F)(F)F)c1)c1cnc2c(c1)N(Cc1cc(Cl)ccc1Cl)CCN2")
"> 100000 nM"
>>> observed_result("O=C1CNc2ncc(I)cc2N1")
"> 100000 nM"
>>> observed_result("C[C@@H](NC(=O)c1ccc(-c2ccnc(Nc3cccc(CN4CCC(O)CC4)c3)n2)s1)c1ccccc1")
"< 1000 nM"

Would you mind listing IC50 for each of the following compounds?
1. Cn1ncc2ccc(-c3n[nH]c4c3Cc3sc(-c5ccc(CN6CCOCC6)c(F)c5)cc3-4)cc21
2. Clc1cccc(OC2CCNc3ncc(Br)cc32)c1 (stereo not drawn)
3. COc1ccc(F)cc1C(C)Oc1cc(-c2cnc(N)nc2C)cnc1N (stereo not drawn)
4. O=C(Nc1ccc(Oc2ccnc3[nH]ccc23)c(F)c1)c1cc2ncsc2n(-c2ccc(F)cc2)c1=O

Response given:
["> 1000 nM", "10000 to 100000 nM", "13000 nM", "< 10 nM"]

Provide reported IC50 for each item, in the same order as listed.
1. Nc1ncc(-c2cnn(C3CCNCC3)c2)cc1-c1cc2c(-c3ccc[nH]3)ccc(F)c2cn1
2. OC1CCN(Cc2cccc(Nc3nccc(-c4ccc(CNc5ccccc5Cl)s4)n3)c2)CC1
3. Cn1ncc2ccc(-c3n[nH]c4c3Cc3sc(-c5ccc(CN6CCCC6)cc5)cc3-4)cc21
4. CCOc1ccn(-c2ccc(F)cc2)c(=O)c1C(=O)Nc1ccc(Oc2ccnc3cc(OC4COC4)c4c(c23)OCCO4)c(F)c1
5. Fc1ccc(F)c(/C=C2/CCNc3nc(Br)ccc32)c1
6. CCn1cc(C(=O)Nc2ccc(Oc3ccnc4cc(OCCOC)c5c(c34)OCCO5)cc2)c(=O)n(-c2ccc(F)cc2)c1=O
7. CP(C)(=O)c1ccc(Nc2cnc3nnn(Cc4ccc5ncccc5c4)c3n2)cc1
8. CN(C)C(=O)c1ccc(-c2ccc3nnc(C(F)(F)c4ccc5nn(C)cc5c4F)n3n2)cc1F

Response given:
["100 to 1000 nM", "1000 to 5000 nM", "> 1000 nM", "≤ 50 nM", "> 100000 nM", "≤ 50 nM", "< 10 nM", "148 nM"]

List the reported IC50 of each compound below.
1. CP(C)(=O)c1ccc(-c2ccc3nnc(C(F)(F)c4ccc5nccn5c4)n3n2)cc1
2. CC(=O)Nc1cccc(Cn2nc(-c3cccc(O)c3)ccc2=O)c1
3. CNCCOc1cc2nccc(Oc3c(F)cc(NC(=O)c4cnc(F)cc4OC)cc3F)c2cc1OC
4. Cc1ccc2nnc(Sc3ccc4ncc(-c5cnn(C6CN(C(C)C)C6)c5)cc4c3)n2n1
5. CCOc1ccn(-c2ccc(F)cc2)c(=O)c1C(=O)Nc1ccc(Oc2ccnc3cc(OCCCN4CCC(C)(C)CC4)c4c(c23)OCCO4)c(F)c1
6. O=C(c1cnc2c(c1)N(Cc1cc(Cl)ccc1Cl)CCN2)N1CCN(c2cccc(Cl)c2)CC1
7. CN1CCN(C(=O)c2ccc(-c3cnc4c(c3)N(Cc3cc(F)ccc3F)CCN4)cc2)CC1
8. CNS(=O)(=O)c1cccc(-c2ccc3nnc(Cc4ccc5ncccc5c4)n3n2)c1

Response given:
1. 1000 to 6000 nM
2. 10 to 1000 nM
3. ≤ 100 nM
4. < 100 nM
5. ≤ 50 nM
6. 10000 to 100000 nM
7. 1000 to 10000 nM
8. < 100 nM

Below is a list of compounds. For each, state its recorded IC50.
1. O=c1sc2ccc(C(F)(F)F)cc2n1Cc1cccc(-c2ncc(OCC3CCNCC3)cn2)c1
2. Cn1cc2c(F)c(C(F)(F)c3nnc4ccc(-c5cnn(CC6COCO6)c5)nn34)ccc2n1 (stereo not drawn)
3. CNCCCOC(=O)Nc1cccc(Cn2nc(-c3cc(F)cc(F)c3)ccc2=O)c1
4. O=C(c1cnc2c(c1)N(Cc1cc(Cl)ccc1Cl)CCN2)N1CCN(c2cccc(C(F)(F)F)c2)CC1
5. C[C@H](c1ccc2nc(NC(=O)C3CC3)cn2n1)c1nnc2ccc(-c3cnn(C)c3)cn12

Response given:
1: 10 to 1000 nM; 2: 247 nM; 3: 10 to 1000 nM; 4: 10000 to 100000 nM; 5: > 100 nM
